IC50, Protein arginine N-methyltransferase 6 (Homo sapiens): measured values
PARAMETER: IC50

CNCCN(C)Cc1cncc(-c2cccc(N(S(=O)(=O)c3ccccc3C)S(=O)(=O)c3ccccc3C)c2)c1	> 5 µM
CN(CCN)Cc1cncc(-c2ccc(NS(=O)(=O)C3CC3)cc2)c1	1.8 µM
CNCCN(C)Cc1cncc(-c2cccc(NC(=O)C(C)C)c2)c1	1.59 µM
COc1cc(OC)cc(-c2cncc(CN(C)CCN)c2)c1	> 10 µM
NCCNC(=O)c1cncc(-c2ccc(NS(=O)(=O)C3CC3)cc2)c1	> 5 µM
CN(CCN)C(=O)c1cncc(-c2ccc(NS(=O)(=O)C3CC3)cc2)c1	> 5 µM
CNCCN(C)Cc1cncc(-c2cccc(NS(=O)(=O)Cc3ccccc3)c2)c1	> 5 µM
CNCCN(C)Cc1cncc(-c2cccc(NS(=O)(=O)C3CC3)c2)c1	0.262 µM
CN(CCN)Cc1cncc(-c2cccc(NS(=O)(=O)c3ccc([N+](=O)[O-])cc3)c2)c1	> 5 µM
CN(CCN)Cc1cncc(-c2cccc(NS(=O)(=O)c3cnn(C)c3)c2)c1	> 5 µM

----------
pIC50: −log10 of the molar value.
The reader will find pIC50 measurements below, all made with Protein arginine N-methyltransferase 6 (Homo sapiens).
Sequence (Q96LA8 whole entry): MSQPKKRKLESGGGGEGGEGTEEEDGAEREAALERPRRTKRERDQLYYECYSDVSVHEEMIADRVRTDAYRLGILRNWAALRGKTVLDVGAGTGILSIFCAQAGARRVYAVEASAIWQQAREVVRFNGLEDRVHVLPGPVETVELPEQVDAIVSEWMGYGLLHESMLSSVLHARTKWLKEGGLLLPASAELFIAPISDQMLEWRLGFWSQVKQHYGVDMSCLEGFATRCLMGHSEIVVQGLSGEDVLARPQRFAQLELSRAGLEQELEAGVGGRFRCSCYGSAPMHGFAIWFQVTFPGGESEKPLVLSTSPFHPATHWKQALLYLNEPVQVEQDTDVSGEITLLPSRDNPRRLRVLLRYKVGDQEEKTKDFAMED
PARAMETER: pIC50

CNCCN(C)Cc1cncc(-c2cccc(NS(=O)(=O)C(F)(F)F)c2)c1	6.16
CNCCN(C)Cc1cncc(-c2cccc(NS(=O)(=O)N(C)C)c2)c1	5.55
Nc1ncnc2c1ncn2[C@@H]1O[C@H](CSCC[C@H](N)C(=O)O)[C@@H](O)[C@H]1O [S-ADENOSYLHOMOCYSTEINE]	5.66
CNCCN(C)Cc1cncc(-c2ccc(NC(=O)N3CCOCC3)cc2)c1	5.87

----------
pIC50: −log10 of the molar value.
Lab note: pIC50 readings collected with UniProt:Q96LA8 for the following compounds.
PARAMETER: pIC50

CNCCN(C)Cc1cncc(-c2cccc(N(S(=O)(=O)c3ccc(C(F)(F)F)cc3)S(=O)(=O)c3ccc(C(F)(F)F)cc3)c2)c1	< 5.30
CNCCN(C)Cc1cncc(-c2cccc(NS(=O)(=O)c3ccc(C)cc3)c2)c1	< 5.30
CNCCNC(=O)c1cncc(-c2ccc(NS(=O)(=O)C3CC3)cc2)c1	< 5.30
